System: CCRF-CEM leukemia
Experiment: NCI tumour cell line growth inhibition, 48 h
As shown below, each of these compounds has a reported TGI value.

// known answers, use as guide
{"Compound": "C[CH2][Ge]([CH2]C)([CH2]C)[O]C(=O)C(OC(C)=O)c1ccccc1 (centres undefined)", "Endpoint Label": "TGI", "Reported": "> 100 µM"}
{"Compound": "COc1ccc(CN2c3ccccc3Sc3ccccc32)c(C(F)(F)F)c1", "Endpoint Label": "TGI", "Reported": "26.5 µM"}
{"Compound": "COC(=O)c1c(C#N)c(N)nc2c1CCC2", "Endpoint Label": "TGI", "Reported": "> 100 µM"}
{"Compound": "NCC(O)CNC(=O)c1ccc(-c2ccc(-c3ccc(C(=O)NCC(O)CN)cc3)o2)cc1 (centres undefined)", "Endpoint Label": "TGI", "Reported": "> 100 µM"}
{"Compound": "CC(C)(C)OC(=O)CN1CCNCCN(CC(=O)OC(C)(C)C)CCNCC1", "Endpoint Label": "TGI", "Reported": "> 100 µM"}

GET /values?readout=TGI&item= c1ccc2c3c([nH]c2c1)[C@H]1C2CCCCN2CN1CC3 (some centres undefined) > 100 µM

What about `Nc1ccc(C(=O)N/C(=C\c2cccc([N+](=O)[O-])c2)c2nc3[nH]c(=S)[nH]c(=O)c3[nH]2)cc1` ? > 100 µM

What about O=C1N2Cc3c4ccc5c3CN3C(=O)N6Cc7c(ccc(c7CN1C6(c1ccccc1)C23c1ccccc1)OCCOCCNCCOCCO4)OCCOCCNCCOCCO5 (centres undefined) ? > 100 µM

What about `CN(c1ccc(C(=O)c2ccc(N(C)S(C)(=O)=O)cc2)cc1)S(C)(=O)=O` ? > 100 µM

* * *

System: MCF7 breast
Assay: NCI tumour cell line growth inhibition, 48 h
Endpoint Label: TGI

// known answers, use as guide
{"Compound": "Cc1c(N=Nc2ccccc2)c(C)n(C2OC(CO)C(O)C(O)C2O)c(=S)c1C#N (stereo unspecified)", "Test Target": "MCF7 breast", "Reported": "> 100 µM"}
{"Compound": "CSc1ccn(C2CC(F)C(CO)O2)c(=O)n1 (stereo unspecified)", "Test Target": "MCF7 breast", "Reported": "> 100 µM"}
{"Compound": "Cc1nc(C)c(N2CCNCC2)c(=O)[nH]1", "Test Target": "MCF7 breast", "Reported": "> 100 µM"}
{"Compound": "C/C=C1\\CN(C(=O)OC(C)(C)C)C1C(=O)OC(C)(C)C (stereo unspecified)", "Test Target": "MCF7 breast", "Reported": "> 100 µM"}
{"Compound": "CCOC(=O)c1cc2c(cc1Cl)SC(=Nc1ccccc1)N(S(=O)(=O)c1ccc(Cl)cc1)S2(=O)=O", "Test Target": "MCF7 breast", "Reported": "15.9 µM"}

GET /values?readout=TGI&item= `O=C(N=c1ccc2nc(=O)[nH]n(O)c-2c1)C(F)(F)F` > 100 µM

What about O=c1ccn(C2OC(CO)C(O)C2F)c(=O)n1Cc1ccccc1 (stereo unspecified) ? > 100 µM

What about `O=c1[nH]cc(Cl)c(=O)[nH]1` ? > 100 µM

What about `COc1ccc2c3c([nH]c2c1)CCN(CCCC(=O)c1ccc(F)cc1)C3` ? 31.6 µM

What about `COc1ncc(Nc2ncc([C@@H](C)N3CCN(S(C)(=O)=O)CC3)cc2-c2nc(C)nc(N)n2)cc1F` ? > 100 µM

What about `COc1ccc2c(c1)[nH]c(=O)c1c3cccc(F)c3cn21` ? > 94.6 µM

* * *

Tested on: NCI-H23 lung
Test: NCI tumour cell line growth inhibition, 48 h
Endpoint Label: TGI

// known answers, use as guide
{"Compound": "Nc1ccc(C(=O)N/C(=C\\c2cccc([N+](=O)[O-])c2)c2nc3[nH]c(=S)[nH]c(=O)c3[nH]2)cc1", "TGI": "> 100 µM"}
{"Compound": "Cc1c(N=Nc2ccccc2)c(C)n(C2OC(CO)C(O)C(O)C2O)c(=S)c1C#N (stereo not drawn)", "TGI": "> 100 µM"}
{"Compound": "Cc1ccc(C2=C(C#N)C(N)OC3=C2COc2ccccc23)cc1 (stereo not drawn)", "TGI": "> 100 µM"}
{"Compound": "Cc1cc(=O)n2nc(CCl)sc2n1", "TGI": "47.1 µM"}
{"Compound": "C=CCN(CCNS(=O)(=O)c1ccc(C)cc1)S(=O)(=O)c1ccc(C)cc1", "TGI": "> 95.5 µM"}

GET /values?readout=TGI&item= `CN(c1ccc(C(=O)c2ccc(N(C)S(C)(=O)=O)cc2)cc1)S(C)(=O)=O` > 100 µM

What about CCCCCCCCCCCCCCC(O)C[N+](C)(CCO)CCO (stereo not drawn) ? 20.7 µM

What about `CC(C)=CCC/C(C)=C/COc1c2ccoc2cc2oc(=O)ccc12` ? > 100 µM

* * *

Tested on: UO-31 renal
Assay: NCI tumour cell line growth inhibition, 48 h
As shown below, each of these compounds has a reported TGI value.

// known answers, use as guide
{"Compound": "CN(C)c1ccc(/C=C(\\NC(=O)c2ccccc2)C2=NC(CCC(=O)O)C(=O)O2)cc1 (stereo not drawn)", "Reported": "> 50 µM"}
{"Compound": "Clc1ccc(-c2cn3c(nc4ccccc43)c(/C=C/c3ccco3)n2)cc1", "Reported": "> 100 µM"}
{"Compound": "COc1ccc2c(c1)c(-c1nc(-c3c[nH]c4ccncc34)cs1)cn2C", "Reported": "2.97 µM"}

GET /values?readout=TGI&item= `O=C(CCC=C(S(=O)(=O)c1ccccc1)S(=O)(=O)c1ccccc1)c1ccccc1` 18.3 µM

What about c1ccc2c3c([nH]c2c1)[C@H]1C2CCCCN2CN1CC3 (stereo partly drawn) ? > 100 µM

What about `O=C1/C=C(/c2ccc(O)cc2)[C@@H](O)Cc2ccc(O)cc2O1` ? > 100 µM

What about COC(=O)c1ccc(C)cc1CC1Cc2ccc(C)cc2C1=O (stereo not drawn) ? 64 µM

What about `CC(C)(C)c1cc(OCc2nn3c(Cc4ccccc4)nnc3s2)c(Cl)cc1OCc1nn2c(Cc3ccccc3)nnc2s1` ? > 100 µM

* * *

System: SK-MEL-28 melanoma
Assay: NCI tumour cell line growth inhibition, 48 h
Endpoint Label: TGI

// known answers, use as guide
{"Compound": "Cc1ccc(S(=O)(=O)SC(C)(C)C)cc1", "Reported": "> 100 µM"}
{"Compound": "OCCN(/N=C\\c1ccc2ccccc2c1)C1=NCCN1", "Reported": "35.3 µM"}
{"Compound": "COc1cc2c3c(n(C)c(=O)c2cc1OC)-c1cc2c(cc1/C3=C\\CCCI)OCO2", "Reported": "> 100 µM"}

GET /values?readout=TGI&item= `CC(=O)Nc1c(S(=O)(=O)c2ccccc2)c(C)c(C)n1Cc1ccccc1` > 100 µM

What about `C=C/C=C/[C@@H](O)CC(=C)C[C@H]1OC2[C@H](C)[C@@H](OC(=O)C[C@H]3C[C@H](OC(C)=O)C[C@@]4(C[C@@](C)(O)C[C@H](CC(=C)[C@@H](C)[C@H](OC(C)=O)[C@H](C)C(=O)C[C@@H]5C[C@H](OC)CC6(C[C@@H](O)C[C@H](/C=C\CCC[C@H]7O[C@](O)(C=C[C@H]7C)[C@H]2O)O6)O5)O4)O3)[C@@H]1O` ? > 25 µM

What about c1ccc2c3c([nH]c2c1)[C@H]1C2CCCCN2CN1CC3 (some centres undefined) ? > 100 µM

* * *

As shown below, each of these compounds has a reported TGI value.
System: K-562 leukemia
Assay: NCI tumour cell line growth inhibition, 48 h

// known answers, use as guide
{"Compound": "O=C(/C=C(\\S/C=C(/c1ccccc1)N1CCn2c(C(=O)c3ccccc3)c(C(=O)c3ccccc3)c(C(=O)c3ccccc3)c21)C(=O)c1ccccc1)c1ccccc1", "Test Target": "K-562 leukemia", "Reported": "> 10 µM"}
{"Compound": "NCC(O)CNC(=O)c1ccc(-c2ccc(-c3ccc(C(=O)NCC(O)CN)cc3)o2)cc1 (centres undefined)", "Test Target": "K-562 leukemia", "Reported": "> 100 µM"}
{"Compound": "Cc1cccc(N2C(=O)C3c4[nH]c5ccccc5c4C4CCC(C(C)(C)C)CC4C3C2=O)c1 (centres undefined)", "Test Target": "K-562 leukemia", "Reported": "17.4 µM"}

# context switch: different compound, same TGI
GET /values?readout=TGI&item= CC1(C)CCC(C)(C)C1C(=O)NC(O)C(=O)O (centres undefined) > 100 µM

* * *

Tested on: ACHN renal
Assay: NCI tumour cell line growth inhibition, 48 h
As shown below, each of these compounds has a reported TGI value.
Note: unit µM is implicit; provide only the numeric part.

// known answers, use as guide
{"Compound": "N=c1c2c(=S)n(-c3ccccc3)c(=S)n(-c3ccccc3)c2nc(SCCN2CCCC2)n1-c1ccccc1", "Reported": 3.26}
{"Compound": "CN(C)c1ccc2oc(=O)c3ccccc3c2c1", "Reported": 62.9}

GET /values?readout=TGI&item= CCC(C)Nc1ccc(N)cc1 (stereo unspecified) 13.3
